All values here come from PubChem BioAssay.

- MEASUREMENT_TARGET: Tumor necrosis factor receptor superfamily member 10B (Homo sapiens) (UniProt O14763)
- Sequence (O14763 whole entry, looked up): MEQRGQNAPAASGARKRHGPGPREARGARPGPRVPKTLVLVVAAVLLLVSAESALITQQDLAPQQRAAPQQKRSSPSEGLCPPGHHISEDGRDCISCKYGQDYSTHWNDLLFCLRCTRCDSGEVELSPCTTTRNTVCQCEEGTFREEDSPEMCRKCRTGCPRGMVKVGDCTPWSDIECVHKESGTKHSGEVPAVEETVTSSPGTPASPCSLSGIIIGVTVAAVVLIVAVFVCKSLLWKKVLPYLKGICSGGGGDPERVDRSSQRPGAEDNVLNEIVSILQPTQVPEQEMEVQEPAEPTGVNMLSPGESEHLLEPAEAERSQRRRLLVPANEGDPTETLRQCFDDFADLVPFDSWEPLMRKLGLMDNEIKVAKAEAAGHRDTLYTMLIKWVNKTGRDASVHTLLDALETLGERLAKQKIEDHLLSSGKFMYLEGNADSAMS
- PROTOCOL_SUMMARY: caspase-8 TRAIL sensitization, hit retest, confirmation, cell-based, NB7+caspase-8, with/without TRAIL, luminescence panel (AID 651596)
- CONDITIONS: NB7 neuroblastoma + caspase-8, TRAIL sensitization, luminescence viability, with TRAIL, mean of runs, at 10 µM, stronger effect = higher value
Collected activity values appear next to each entry.

{"COMPOUND": "Cc1ccc(-c2nc(-c3ccccn3)no2)cc1[N+](=O)[O-]", "UNIT_ABBREVIATION": "%", "activity": 60.7}
{"COMPOUND": "C=C(C)CSc1nnc2n(C)c(=O)c3c4c(sc3n12)CCC4", "UNIT_ABBREVIATION": "%", "activity": 61.6}
{"COMPOUND": "CCOc1ccc2nc(NC(=O)c3ccc(C)o3)sc2c1", "UNIT_ABBREVIATION": "%", "activity": 61.1}
{"COMPOUND": "O=C(CC(Nc1ccc(Cl)cc1)C(=O)O)c1ccccc1 (centres undefined)", "UNIT_ABBREVIATION": "%", "activity": 60.6}
